Consider the following compounds; for each one, report its pIC50.
API: returns pIC50 as number; meaning -log10 of concentration in mol/L.

Item: O=C(NC1CC1)c1cc(NCc2cnc3[nH]c(-c4ccccc4)cc3c2)c(F)cc1F | System: VEGFR-2 (Homo sapiens) | pIC50: 7.19

Item: O=C(NC1CC1)c1ccc(F)c(NCc2cnc3[nH]c(-c4cccnc4)cc3c2)c1 | System: VEGFR-2 (Homo sapiens) | pIC50: 7.77
